Numbers sourced from paper PMC10663500.

target.or.system: T1, mouse programmed cell death protein 1 Fc fusion protein (mPD-1-Fc), mPD-1 C60S (aa 25-167) (Mus musculus, UniProt Q02242, stabilised)
T1 construct: not cleaved; source: Expi293F, purified (Protein A, SEC; dimeric fraction); not shown: Fc (human), C-terminal, kept
run.description: SPR; Carterra LSA; Fab from the ammonium sulfate precipitate of the culture supernatant immobilised on a NiHC200M chip; hPD-1 (1-1024 nM) or mPD-1-Fc (4-1024 nM) as analyte, fourfold dilution series, no regeneration; HBS-EP pH 7.4, 25 °C; medians over the spots of a construct, KD = koff/kon
experimental.parameters: one partner purified
reported.metric: kon (M⁻¹ s⁻¹)
Please state the figure in M⁻¹ s⁻¹; there is no need to write the unit.

Can you look up the measured kon of toripalimab Fab H.G66Y (Fab, V domains shown, heavy chain of Sm3 with this change; numbers count from the chain's first residue; as the light chain of Sm3; source: Brevibacillus, culture supernatant (ammonium sulfate precipitate); not shown: 6xHis, C-terminal, kept; 6xHN, C-terminal, kept) VH: QGQLVQSGAEVKKPGASVKVSCKASGYTFTDYEMHWVRQAPIHGLEWIGVIESETGGTAYNQKFKYRVTITADKSTSTAYMELSSLRSEDTAVYYCAREGITTVATTYYWYFDVWGQGTTVTVSS VL: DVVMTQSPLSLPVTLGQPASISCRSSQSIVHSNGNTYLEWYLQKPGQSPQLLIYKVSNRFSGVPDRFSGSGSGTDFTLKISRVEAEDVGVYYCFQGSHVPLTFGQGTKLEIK for me?
28100

May I ask what kon has been recorded for toripalimab Fab H.G100A (Fab, V domains shown, heavy chain of Sm3 with this change; numbers count from the chain's first residue; as the light chain of Sm3; source: Brevibacillus, culture supernatant (ammonium sulfate precipitate); not shown: 6xHis, C-terminal, kept; 6xHN, C-terminal, kept) VH: QGQLVQSGAEVKKPGASVKVSCKASGYTFTDYEMHWVRQAPIHGLEWIGVIESETGGTAYNQKFKGRVTITADKSTSTAYMELSSLRSEDTAVYYCAREAITTVATTYYWYFDVWGQGTTVTVSS VL: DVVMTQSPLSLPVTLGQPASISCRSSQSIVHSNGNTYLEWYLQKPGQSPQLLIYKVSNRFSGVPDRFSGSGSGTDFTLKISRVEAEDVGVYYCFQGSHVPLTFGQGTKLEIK ?
76100
